# Tested on: Escherichia coli TOP10;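 also: peptides expressed intracellularly from a pBAD plasmid library in pooled LB shake-flask culture, induced with 0.3% L-arabinose, DNA abundance read by NGS, three biological replicates, DESeq2 with apeglm shrinkage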
# assay-summary: shrunken log2 fold change of peptide-encoding DNA abundance (4.5 h post-induction vs induction); higher = less antimicrobial activity (less host growth inhibition)
# test-conditions: time post-induction: 4.5 h; library: site-saturation at positions 5, 18, 19, 20
measurement-label: shrunken log2 fold change
Give only the figure.

>>> measured_value("RRIRIRPPRLPRPRPRPWKQPRP")
-0.00674
>>> measured_value("RRIRSRPPRLPRPRPRPGFQPRP")
-0.114
>>> measured_value("RRIRFRPPRLPRPRPRPACNPRP")
-0.26
>>> measured_value("RRIRLRPPRLPRPRPRPIIKPRP")
-0.527
>>> measured_value("RRIRIRPPRLPRPRPRPEHPPRP")
-0.182

Ask | Suppose we examine the sequence RRIRRRPPRLPRPRPRPNVSPRP ; what shrunken log2 fold change value has been reported?
Reply | 0.137

Ask | Suppose we examine the sequence RRIRLRPPRLPRPRPRPTDKPRP ; what shrunken log2 fold change value has been reported?
Reply | -0.251

Ask | Suppose we examine the sequence RRIRDRPPRLPRPRPRPPMSPRP ; what shrunken log2 fold change value has been reported?
Reply | 0.137

Ask | Suppose we examine the sequence RRIRRRPPRLPRPRPRPNSVPRP ; what shrunken log2 fold change value has been reported?
Reply | -0.0617

Ask | Suppose we examine the sequence RRIRFRPPRLPRPRPRPGPLPRP ; what shrunken log2 fold change value has been reported?
Reply | 0.262

Ask | Suppose we examine the sequence RRIRRRPPRLPRPRPRPQADPRP ; what shrunken log2 fold change value has been reported?
Reply | 0.312

Ask | Suppose we examine the sequence RRIRSRPPRLPRPRPRPYCRPRP ; what shrunken log2 fold change value has been reported?
Reply | -0.512

Ask | Suppose we examine the sequence RRIRARPPRLPRPRPRPADKPRP ; what shrunken log2 fold change value has been reported?
Reply | 0.197
